assayInfo: primary screen for suppressors of beta-catenin knockout HCT116 cell growth, colon tumor, human (AID 818);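 note: 0% = Hyamine 1622 control at 20 µM and 100% = untreated cell control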
protocolConditions: CellTiter-Glo, 60 h, at 10 µM, stronger effect = lower value
Out of some 140,000 compounds screened, about 2,100 (1.5%) were called active. The sample holds actives, similar compounds and a random draw of the others, so the mix is not that of the screen.
Please go through the items and note down their viability.

Illustrative cases are given below, each with its answer.
Cc1nc(SCc2ccc(F)cc2)c([N+](=O)[O-])[nH]1	89.8% (inactive)
COc1ccc(S(=O)(=O)Nc2ccc(O)c(Sc3nc4ccccc4s3)c2)cc1	82.2% (inactive)
CNC(=O)/C(C#N)=C/c1c(F)cccc1Cl	74.3% (inactive)
CCOc1ccc(NC(=O)CCC(=O)N/N=C/c2ccc([N+](=O)[O-])s2)cc1	5.45% (active)
CN(C)C(=O)c1ccc2c(c1)C1C3CCC(C3)C1C(c1ccccc1)N2 (stereo unspecified)	83.3% (inactive)

Provide the reported viability of each entry below, same order.
1. CC(=O)N1CC(C)c2scc(C)[n+]2-c2ccccc21 (stereo unspecified)
2. CCCCn1c(O)c(N=NC(=O)Cn2c(C(F)(F)F)nc3ccccc32)c2ccccc21
3. O=C1NC(=Nc2ccc(Cl)cc2)SC1Cc1cccc(Cl)c1Cl (stereo unspecified)
4. CCCCN(CC)C(=O)c1ccccc1Oc1ccccc1
5. O=C(/C=C/c1cccs1)NCc1cccnc1
6. CCCCC(C(=O)OCC(=O)c1ccc(OC)cc1)N1C(=O)c2ccccc2C1=O (stereo unspecified)

Ans.
1. 91.2% (inactive)
2. 93.1% (inactive)
3. 101% (inactive)
4. 85.8% (inactive)
5. 91.2% (inactive)
6. 103% (inactive)
